Hi there, I'd appreciate the recorded TGI for every entry that follows.
- Tested on: PC-3 prostate
- test: NCI tumour cell line growth inhibition, 48 h

Query: Which TGI reading was recorded for the compound `CC1=Nn2c(nc3sc4c(c3c2=O)CCCC4)SC1` ?
Reply: > 100 µM

Query: What would you report for CC(=O)Oc1ccc2c(c1)CC[C@@H]1C2[C@@H](O[N+](=O)[O-])C[C@@]2(C)C1CC[C@@H]2O (stereo partly drawn) ?
Reply: > 100 µM

Query: Now the same for `O=C1C=C(c2cc(Br)c(O)c(Br)c2)/C(=C/c2cc(Br)c(O)c(Br)c2)O1`
Reply: > 75 µM

---

- System: OVCAR-3 ovarian
- test: NCI tumour cell line growth inhibition, 48 h
property: TGI

Query: Can you share its TGI? I mean this molecule: `CC[C@H]1C=CCC[C@@]2(C[C@@H]3CC[C@@H]4[C@H](C(=O)OCCCCCCCCCCCCCCCC(=O)N(CCCN)C[C@@H](O)CCN)[C@]5(CCC[C@@H](C)O5)NC(=[N+]34)N2)O1`
Reply: > 10 µM

Query: Continue with `COc1ccc(CNc2nc3ccccc3nc2-c2cccs2)cc1`
Reply: > 100 µM

Query: Field entry: `Cc1cc2occ(C)c(=O)c2c2c1OC(C)(C)S2`
Reply: > 100 µM

---

- System: A549 NSCLC
- test: NCI tumour cell line growth inhibition, 48 h
property: TGI

Query: Reported TGI for A549 NSCLC, given `Cc1ccc2[nH]c(=O)c(-c3cnc(=O)[nH]n3)c(O)c2c1` ?
Reply: > 100 µM

Query: Lookup `O=C1c2cccc3cc([N+](=O)[O-])cc(c23)C(=O)N1CCCN1CCN(CCCN2C(=O)c3cccc4cc([N+](=O)[O-])cc(c34)C2=O)CC1`
Reply: > 100 µM

Query: # repeat for `CCOC(=O)C(=O)Nc1c(C)cccc1CC`
Reply: > 100 µM

Query: # repeat for CC1=C(N2CC2)C(=O)c2nc3n(c2C1=O)CCC3O (stereo unspecified)
Reply: 1.49 µM

Query: Here is the next compound: `Brc1ccc2c(c1)C1=C(CO2)Cc2ccccc2O1`
Reply: 48 µM

Query: Note, next up: `c1ccc(N=NNNc2ccc(-c3nc4ccccc4[nH]3)cc2)cc1`
Reply: > 100 µM

---

- Tested on: HS 578T breast
- test: NCI tumour cell line growth inhibition, 48 h
property: TGI

Query: Write down the reported TGI of OC1CN=C2c3ccccc3C(O)(c3ccc(Cl)cc3)N2C1 (stereo not given) , test system: HS 578T breast.
Reply: > 100 µM

Query: Same read-out for `CCOC(=O)/C=C(/C(=O)OCC)n1cc(C)c(=O)n(Cc2cnnn2CCCCOC(C)=O)c1=O` ?
Reply: > 100 µM

Query: Can you handle `COc1cccc(-c2cc(=O)c3cc(C)cnc3[nH]2)c1` next?
Reply: > 100 µM

Query: Moving on to `CCOC(=O)/C(C1=CC(=O)C(=O)c2ccccc21)=C(/C)NCc1ccccc1`
Reply: 6.96 µM

Query: Next molecule up: CCN(CC)C(=O)CCCCCCCCC1CO1 (stereo not given)
Reply: > 100 µM

---

- Test system: SNB-19 CNS
Please respond with reported GI50 for every item in the list.

Query: If you can, please state the reported GI50 value of `O=[N+]([O-])/C=C\c1ccc2c(c1)OCO2` .
Reply: 13.1 µM

Query: Next molecule: `O=C(N/N=C/c1ccc(F)cc1)c1[nH]c2ccc(I)cc2c1-c1ccccc1`
Reply: 2.31 µM

Query: Subsequent entry: `O=C1C=C(c2cc(Br)c(O)c(Br)c2)/C(=C/c2cc(Br)c(O)c(Br)c2)O1`
Reply: 14 µM

---

For each entry below, report its TGI value.
- System: DU-145 prostate
- test: NCI tumour cell line growth inhibition, 48 h

Query: Name the reported TGI value associated with the compound `Cc1cc(O)cc(C)c1/C=C/c1cncc(C(=O)N(C)C)c1`
Reply: > 25 µM

Query: Request: `O=C1C=C(c2cc(Br)c(O)c(Br)c2)/C(=C/c2cc(Br)c(O)c(Br)c2)O1`
Reply: > 75 µM

Query: Moving on to the next compound: `Clc1ccc(OCc2nnc(CCCCCCCCc3nnc(COc4ccc(Cl)cc4Cl)o3)o2)c(Cl)c1`
Reply: > 100 µM

Query: Subsequent entry: `CN(C)Cc1cc(C(=O)O)cc(CN(C)C)c1O`
Reply: > 100 µM

Query: And for `CC1(C)N=C(N)N=C(N)N1c1cccc(CSc2ccccc2)c1` ?
Reply: > 100 µM

Query: Now this one: CCN1C/C(=C\c2ccc(Cl)cc2)C2=NN(c3ccccc3)C(c3ccc(Cl)cc3)C2C1 (centres undefined)
Reply: > 100 µM

Query: Lookup `O=c1[nH]cnc2c1ncn2[C@H]1CO[C@@H](CO)[C@@H]1O`
Reply: > 100 µM

Query: Check `O=C1NC(N2CCOCC2)=N/C1=C\c1ccccc1O` too.
Reply: > 100 µM

Query: Another compound to look at: OC1CN=C2c3ccccc3C(O)(c3ccc(Cl)cc3)N2C1 (centres undefined)
Reply: > 100 µM

---

- Test system: K-562 leukemia
- test: NCI tumour cell line growth inhibition, 48 h
property: TGI

Query: For the record `CN(C)Cc1cc(C(=O)/C=C/c2ccc(/C=C/C(=O)c3cc(CN(C)C)c(O)c(CN(C)C)c3)cc2)cc(CN(C)C)c1O` , what value of TGI is listed for K-562 leukemia?
Reply: > 100 µM

Query: And the next one, CC(Nc1cc(Cl)cc(Cl)c1)c1ccncc1 (stereo unspecified) ?
Reply: > 100 µM

Query: Same for `CCc1ccc(C2=C(O)C(=O)C(c3ccc(CC)cc3)=C(O)C2=O)cc1`
Reply: 3.61 µM

Query: Input `Cc1ccc(-c2cc3nc(-c4ccccc4)nc(C(Cl)Cl)n3n2)cc1`
Reply: > 50 µM

Query: What do you get for `Cc1nc2ccccc2n1CCc1nc2ccccc2s1` ?
Reply: > 100 µM

Query: What about this compound? CC(NCCS(=O)(=O)O)C(=O)O (stereo unspecified)
Reply: > 100 µM

---

Provide the recorded TGI for the entries that follow.
- Test system: K-562 leukemia
- test: NCI tumour cell line growth inhibition, 48 h

Query: # input compound: `CCOC(=O)/C=C(/CN1C(=O)c2ccccc2C1=O)c1ccccc1` ; wanted: its TGI
Reply: > 100 µM

Query: Same question, `CCOC(=O)C(=O)Nc1c(C)cccc1CC` this time
Reply: > 100 µM

Query: Now consider `NS(=O)(=O)c1ccc(/C=C/c2cccc(O)c2)cc1` .
Reply: > 100 µM

Query: Repeat with OC1CCC(Oc2cccc3cnc(Nc4ccc5nc[nH]c5c4)nc23)CC1 (stereo unspecified)
Reply: 19.3 µM

Query: Follow-up item: O=C(O)C(Cc1ccc(O)c([N+](=O)[O-])c1)N1C(=O)c2ccccc2C1=O (stereo unspecified)
Reply: > 100 µM

Query: Input `O=C(c1cccs1)N(C(=O)N1CCC(c2ccccc2)CC1)c1ccccc1`
Reply: > 100 µM

Query: Lookup `N#C/C(=C(\O)C(=O)O)c1ccc(-c2cccc3ccccc23)cc1`
Reply: > 100 µM

Query: Continue with `CO[P@]1(=O)O[C@@H](c2ccccc2)[C@H](O)[C@]1(O)c1ccccc1`
Reply: > 100 µM

Query: Another: `O=C1c2cccc3cc([N+](=O)[O-])cc(c23)C(=O)N1CCCN1CCN(CCCN2C(=O)c3cccc4cc([N+](=O)[O-])cc(c34)C2=O)CC1`
Reply: > 100 µM

Query: And what about the compound CC(SC1=CC(=O)c2c(O)ccc(O)c2C1=O)C(=O)O (stereo unspecified) ?
Reply: 40.7 µM

Query: Then this compound: `O=S(=O)(O)c1ccc2cc(N=Nc3cc(S(=O)(=O)O)c4cccnc4c3O)ccc2c1`
Reply: > 100 µM

---

Answer each item with its documented TGI.
- Tested on: HOP-92 NSCLC
- test: NCI tumour cell line growth inhibition, 48 h
Quick reminder: number only, in µM, skip the unit.

Query: Form field - read-out: TGI; system: HOP-92 NSCLC; submitted item: `O=C1CSC2(CCN(CCCN3c4ccccc4Sc4ccc(Cl)cc43)CC2)N1`
Reply: 20.3

Query: Here is the next compound: OC1CN=C2c3ccccc3C(O)(c3ccc(Cl)cc3)N2C1 (centres undefined)
Reply: 94.6

Query: Continue with COc1cc(C(C#N)NNC(=O)c2ccccc2O)ccc1O (centres undefined)
Reply: 97.3

Query: Check `Cc1ccc(N2C(=O)C(Cl)=C(Nc3cccc(O)c3)C2=O)cc1Cl` too.
Reply: 37.6

Query: Please answer likewise for `CCN(CC)CCNc1ccc(N=Nc2ccc(S(N)(=O)=O)cc2)c2ccccc12`
Reply: 35.9

Query: Request: `CCN(CC)C(=S)SSC1CCCCC1`
Reply: 40

Query: // same read-out, input: `CCOC(=O)/C=C(/C(=O)OCC)n1cc(C)c(=O)n(Cc2cnnn2CCCCOC(C)=O)c1=O`
Reply: 20.2

Query: Lookup COc1cc2c(cc1OCCCC(=O)Nc1cc(C(=O)Nc3cc(C(=O)NCCCN(C)C)n(C)n3)n(C)n1)N=CC1CCCN1C2=O (centres undefined)
Reply: 33.2
